Where these numbers come from: the supplement of paper PMC6992640

Test system: HCI16 (cells of a triple-negative basal-like breast cancer xenograft)
assay remarks: cell viability (% of vehicle); higher = less cytotoxic
conditions used: 10 µM; 72 h
reported metric: cell viability
Output spec: single numeric token, no unit.

# annotated cases, reported cell viability shown
>  <compound>
CC(C)NCC(O)COc1ccc(CCOCC2CC2)cc1.Cl (stereo not drawn) [Levobetaxolol HCl]

>  <assay system>
HCI16

>  <cell viability>
127

$$$$
>  <compound>
Clc1ccc(C(Cn2ccnc2)OCc2ccsc2Cl)c(Cl)c1 (stereo not drawn)

>  <assay system>
HCI16

>  <cell viability>
119

$$$$

Shift focus to the following entry.
For Cc1cc(C2CCCCC2)n(O)c(=O)c1 , what is its reported cell viability?
117

---

System: HCI09 (cells of a triple-negative luminal androgen receptor type breast cancer xenograft)
assay remarks: cell viability (% of vehicle); higher = less cytotoxic
conditions used: 10 µM; 72 h
reported metric: cell viability
Output spec: single numeric token, no unit.

# annotated cases, reported cell viability shown
>  <compound>
CC(C)Cn1cnc2c(N)nc3ccccc3c21

>  <recorded number>
72.7

$$$$
>  <compound>
NS(=O)(=O)c1cc2c(cc1Cl)NCNS2(=O)=O [Hydrochlorothiazide]

>  <recorded number>
134

$$$$
>  <compound>
CC1(C)CCC(C)(C)c2cc(NC(=O)c3ccc(C(=O)O)cc3)ccc21

>  <recorded number>
65.6

$$$$
>  <compound>
Cc1ccc(=O)n(-c2ccccc2)c1

>  <recorded number>
103

$$$$

For CCN(CC)CC#CCOC(=O)C(O)(c1ccccc1)C1CCCCC1 (stereo not given) , what is its reported cell viability?
132

---

System: HCI09
assay remarks: cell viability (% of vehicle); higher = less cytotoxic
conditions used: 10 µM; 72 h
reported metric: cell viability

For CCC1=CC2CN(C1)Cc1c([nH]c3ccccc13)C(C(=O)OC)(c1cc3c(cc1OC)N(C)C1C(O)(C(=O)OC)C(OC(C)=O)C4(CC)C=CCN5CCC31C54)C2 (stereo unspecified) [Vinorelbine] , what is its reported cell viability?
70.5

Please do the same for Cc1nc2c([nH]1)CCN(C(=O)c1ccc(NC(=O)c3ccccc3-c3ccccc3)cc1)c1ccccc1-2.Cl [Conivaptan HCl] as well.
60.4

---

The following compounds are listed with their measured cell viability values.
Tested on: HCI09
assay remarks: cell viability (% of vehicle); higher = less cytotoxic
conditions used: 10 µM; 72 h
Output spec: single numeric token, no unit.

>  <smi>
O=P(O)(O)C(O)(Cn1ccnc1)P(=O)(O)O

>  <cell viability>
88.4

$$$$

For CCCCCCCCCCCCCCCCOP(=O)([O-])OCC[N+](C)(C)C , what is its reported cell viability?
87.7

Please do the same for CC(=O)N(c1onc(C)c1C)S(=O)(=O)c1ccc(N)cc1 as well.
90.9

---

The following compounds are listed with their measured cell viability values.
System: WHIM2 (cells of a triple-negative basal-like breast cancer xenograft)
assay remarks: cell viability (% of vehicle); higher = less cytotoxic
conditions used: 1 µM; 72 h
Output spec: single numeric token, no unit.

# annotated cases, reported cell viability shown
>  <compound>
COc1cc2nccc(Oc3ccc(NC(=O)C4(C(=O)Nc5ccc(F)cc5)CC4)cc3)c2cc1OC.O=C(O)CC(O)C(=O)O [Cabozantinib malate (XL184)]

>  <reported metric>
cell viability

>  <recorded number>
90.8

$$$$
>  <compound>
CC(C)N=c1cc2n(-c3ccc(Cl)cc3)c3ccccc3nc-2cc1Nc1ccc(Cl)cc1 [Clofazimine]

>  <reported metric>
cell viability

>  <recorded number>
90.3

$$$$
>  <compound>
Nc1ncn(C2OC(CO)C(O)C2O)c(=O)n1 (centres undefined) [5-Azacytidine]

>  <reported metric>
cell viability

>  <recorded number>
91.3

$$$$

Shift focus to the following entry.
Request body: readout cell viability, system WHIM2, query CCCCc1oc2ccc(NS(C)(=O)=O)cc2c1C(=O)c1ccc(OCCCN(CCCC)CCCC)cc1 [Dronedarone] . Return the value.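 Note: cells dissociated from PDX tumors propagated in female NSG mouse mammary fat pads, vehicle control 0.1% DMSO.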
91.8

---

System: HCI13 (cells of an ER-positive luminal breast cancer xenograft)
assay remarks: cell viability (% of vehicle); higher = less cytotoxic
conditions used: 10 µM; 72 h
Rule: cell viability below 100 gives 1.0. Equal to or above 100 gives 0.0.

Worked examples follow.
>  <compound>
O=c1cc[nH]c(=O)[nH]1

>  <answer label>
1.0

$$$$
>  <compound>
Cl.Nc1ncnc2nc[nH]c12 [Adenine HCl]

>  <answer label>
1.0

$$$$
>  <compound>
Cn1cnc([N+](=O)[O-])c1Sc1ncnc2nc[nH]c12

>  <answer label>
1.0

$$$$

Consider the compound NC(=O)N1c2ccccc2C=Cc2ccccc21 [Carbamazepine] . Is its cell viability strictly less than 100?
1.0

Please do the same for CCn1cc(C(=O)O)c(=O)c2cc(F)c(N3CCNC(C)C3)c(F)c21.Cl (stereo not drawn) [Lomefloxacin HCl] as well.
1.0

Please do the same for OC(Cn1cncn1)(Cn1cncn1)c1ccc(F)cc1F [Fluconazole hydrate] as well.
0.0

Please do the same for CC(C)(O)c1ccccc1CCC(SCC1(CC(=O)[O-])CC1)c1cccc(C=Cc2ccc3ccc(Cl)cc3n2)c1.[Na+] (stereo not drawn) [Montelukast Sodium] as well.
1.0

Please do the same for CC(=O)N=c1sc(S(N)(=O)=O)nn1C [Methazolamide] as well.
0.0

Please do the same for Cc1cc(C)nc(NS(=O)(=O)c2ccc(N)cc2)n1 as well.
0.0

Please do the same for CCCCOc1cc(C(=O)OCCN(CC)CC)ccc1N.Cl [Oxybuprocaine HCl] as well.
1.0

Please do the same for CCCCS(=O)(=O)NC(Cc1ccc(OCCCCC2CCNCC2)cc1)C(=O)O.Cl.O (stereo not drawn) [Tirofiban hydrochloride monohydrate] as well.
0.0

Please do the same for CC12CCC3c4ccc(O)cc4CCC3C1CCC2OC(=O)CCC1CCCC1 (stereo not drawn) [Estradiol Cypionate] as well.
0.0

---

System: HCI09
assay remarks: cell viability (% of vehicle); higher = less cytotoxic
conditions used: 10 µM; 72 h
The following compounds are listed with their measured cell viability values.
Output spec: single numeric token, no unit.

# annotated cases, reported cell viability shown
>  <compound>
C/C=C/C1=C(C(=O)O)N2C(=O)[C@@H](NC(=O)[C@H](N)c3ccc(O)cc3)[C@@H]2SC1

>  <recorded number>
103

$$$$
>  <compound>
CC(=O)C1(O)Cc2c(O)c3c(c(O)c2C(OC2CC(N)C(O)C(C)O2)C1)C(=O)c1ccccc1C3=O.Cl (stereo not drawn) [Idarubicin HCl]

>  <recorded number>
28.4

$$$$
>  <compound>
CC1c2cccc(O)c2C(O)=C2C(=O)C3(O)C(O)=C(C(N)=O)C(=O)C(N(C)C)C3C(O)C21.Cl (stereo not drawn) [Doxycycline HCl]

>  <recorded number>
90.6

$$$$

Request body: readout cell viability, system HCI09, query COc1cc2c(cc1OC)CC(=O)N(CCCN(C)CC1Cc3cc(OC)c(OC)cc31)CC2.Cl (stereo not drawn) [Ivabradine HCl] . Return the value.
100

Please do the same for COC(=O)C1=C(C)NC(C)=C(C(=O)OC2CCCN(Cc3ccccc3)C2)C1c1cccc([N+](=O)[O-])c1.Cl (stereo not drawn) [Benidipine HCl] as well.
27.9

---

Test system: HCI03 (cells of an ER-positive luminal breast cancer xenograft)
assay remarks: cell viability (% of vehicle); higher = less cytotoxic
conditions used: 10 µM; 72 h
reported metric: cell viability
Output spec: single numeric token, no unit.

# annotated cases, reported cell viability shown
>  <molecule>
Nc1nccs1

>  <recorded number>
105

$$$$
>  <molecule>
Cn1c(=O)cc(N2CCCC(N)C2)n(Cc2cc(F)ccc2C#N)c1=O (stereo not given)

>  <recorded number>
116

$$$$
>  <molecule>
Clc1ccc(C(Cn2ccnc2)OCc2csc3c(Cl)cccc23)c(Cl)c1.O=[N+]([O-])O (stereo not given) [Sertaconazole nitrate]

>  <recorded number>
85.1

$$$$
>  <molecule>
CC(NCCCc1cccc(C(F)(F)F)c1)c1cccc2ccccc12.Cl (stereo not given) [Cinacalcet HCl]

>  <recorded number>
46.8

$$$$
>  <molecule>
COc1ccccc1OCC(O)CN1CCN(CC(=O)Nc2c(C)cccc2C)CC1 (stereo not given)

>  <recorded number>
96.3

$$$$
>  <molecule>
COc1ccccc1OCC(O)CN1CCN(CC(=O)Nc2c(C)cccc2C)CC1.Cl.Cl (stereo not given) [Ranolazine 2HCl]

>  <recorded number>
124

$$$$
>  <molecule>
CCCCc1oc2ccccc2c1C(=O)c1cc(I)c(OCCN(CC)CC)c(I)c1.Cl [Amiodarone HCl]

>  <recorded number>
54.7

$$$$
>  <molecule>
COc1ccc(C2CNC(=O)C2)cc1OC1CCCC1 (stereo not drawn) [S- (+)-Rolipram]

>  <recorded number>
152

$$$$
>  <molecule>
CCN(CC)CCOCCOC(=O)C(CC)(CC)c1ccccc1.O=C(O)CC(O)(CC(=O)O)C(=O)O [Oxeladin Citrate]

>  <recorded number>
92.7

$$$$

Request body: readout cell viability, system HCI03, query COS(=O)(=O)[O-].C[N+]1(C)CCC(=C(c2ccccc2)c2ccccc2)CC1 [Diphemanil Methylsulfate] . Return the value.
121
